- System: HEK293T;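 further: lentiviral eGFP-IRES-mCherry reporter pool sorted by FACS 96 h post-transduction, gated on mCherry-high cells, Illumina read counts normalized per million, median across four biological replicates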
- ASSAY_OVERVIEW: median enrichment of reporter reads in eGFP-reduced (low/intermediate) vs eGFP-high sorted cells (eGFP-extension fusion abundance) (ratio); higher = stronger loss of eGFP-fusion protein abundance (more destabilising extension)
Answer 0.0 if median enrichment is under 7, and 1.0 if it is 7 or more.

Illustrative cases are given below, each with its answer.
SEQUENCE_TEXT	ANSWER_LABEL
LYVTVSCLSSSMYF [ARHGEF35]	1.0
CDQLSCTNFEV [IFNGR1]	0.0
YKRSLADPSL [KCNQ3]	0.0

## Task Entry KLICKIRNWTHIALFECEVR [RNF182] : is its median enrichment no less than 7?
## Result 1.0

## Task Entry RGRLNPPNINSHPSLHSCLPLFTFILRVQKFQVSFELYFVCQFHAYFSFIRES [CNTD1] : is its median enrichment no less than 7?
## Result 0.0
